Parameter melting point: see the listing below.

# COMPOUND, melting point
data = [
    ("COc1cccc(CCN[C@@H]2C[C@@H]3C[C@H]2[C@@H]2CCC[C@H]32)c1.Cl", "222 to 225 °C"),
    ("COc1cccc(CN[C@@H]2C[C@@H]3C[C@H]2[C@@H]2CCCC[C@H]32)c1.Cl", "234 to 236 °C"),
    ("CN(C)c1cccc(CN[C@@H]2C[C@@H]3C[C@H]2[C@@H]2CCC[C@H]32)c1.Cl", "166 to 170 °C (dec.)"),
    ("COc1cccc(CCCN[C@@H]2C[C@@H]3C[C@H]2[C@@H]2CCC[C@H]32)c1.Cl", "186 to 188 °C"),
    ("O=C(O)c1cccc(CN[C@@H]2C[C@@H]3C[C@H]2[C@@H]2CCC[C@H]32)c1 [Example 14]", "258 to 261 °C"),
    ("Cl.Ic1cccc(CN[C@@H]2C[C@@H]3C[C@H]2[C@@H]2CCC[C@H]32)c1", "220 to 224 °C (dec.)"),
    ("Brc1cccc(CN[C@@H]2C[C@@H]3C[C@H]2[C@@H]2CCC[C@H]32)c1.Cl", "248 °C"),
    ("COCCOc1cccc(CN[C@@H]2C[C@@H]3C[C@H]2[C@@H]2CCC[C@H]32)c1.Cl", "134 °C"),
]

###

# SYSTEM UNDER TEST: Rat NHE3 (Rattus norvegicus, UniProt P26433)
# Construct: expressed in transfected cells
# Sequence (P26433 29-831): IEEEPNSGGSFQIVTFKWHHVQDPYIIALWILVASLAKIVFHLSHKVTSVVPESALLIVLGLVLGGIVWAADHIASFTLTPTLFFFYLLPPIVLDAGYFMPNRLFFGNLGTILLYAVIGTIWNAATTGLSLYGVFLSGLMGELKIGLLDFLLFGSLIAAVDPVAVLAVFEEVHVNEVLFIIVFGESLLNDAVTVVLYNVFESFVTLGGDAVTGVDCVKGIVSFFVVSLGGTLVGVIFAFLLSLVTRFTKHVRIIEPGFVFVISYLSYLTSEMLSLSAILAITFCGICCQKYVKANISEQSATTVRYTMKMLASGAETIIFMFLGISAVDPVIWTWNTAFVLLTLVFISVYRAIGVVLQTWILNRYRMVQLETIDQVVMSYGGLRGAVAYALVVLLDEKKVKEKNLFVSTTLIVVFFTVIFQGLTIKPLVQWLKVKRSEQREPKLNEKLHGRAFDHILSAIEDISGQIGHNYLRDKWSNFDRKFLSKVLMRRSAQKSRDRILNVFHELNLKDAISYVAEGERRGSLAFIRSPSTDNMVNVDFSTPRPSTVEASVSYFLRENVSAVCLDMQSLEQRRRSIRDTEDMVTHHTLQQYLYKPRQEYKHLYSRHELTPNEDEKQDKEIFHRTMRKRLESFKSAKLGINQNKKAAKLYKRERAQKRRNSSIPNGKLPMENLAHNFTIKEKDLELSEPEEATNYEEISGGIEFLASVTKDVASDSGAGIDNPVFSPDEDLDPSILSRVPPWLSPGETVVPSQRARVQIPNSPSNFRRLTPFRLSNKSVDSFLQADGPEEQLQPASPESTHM
# METHOD DESCRIPTION: NHE activity measurement: pHi recovery after acid load in transfected LAP1 cells
# Assay type: cell-based
# EXPERIMENTAL PARAMETERS: pH recovery after acid load, 3 minutes; hydrochloride
Where a name gives a salt, the structure may show the parent alone.
Parameter IC50: see the listing below.

# MOLECULE, IC50
rows = [
    ("COc1cccc(CNC2CC3CC2C2CCCC32)c1 (single isomer, unassigned; (+)) [(+)−6, hydrochloride]", "0.5 µM"),
    ("COc1cccc(CNC2CC3CC2C2CCCC32)c1 (single isomer, unassigned; (-)) [(−)−6, hydrochloride]", "1 µM"),
]

###

# Test system: Caco 2 cells
# METHOD DESCRIPTION: Caco 2 model (transport across monolayers, absorbed fraction)
# Assay type: in vitro ADME
# EXPERIMENTAL PARAMETERS: Caco 2 monolayers, apical to basolateral, assessed from Papp via calibration curve
# Protocol: The Caco 2 cell line was obtained from the American Type Culture Collection (ATCC) and kept in Dulbecco's Modified Eagle Medium (high proportion of glucose), supplemented with non-essential amino acids, L-glutamine, penicillin/streptomycin, and 10% strength fetal calf serum, in an incubator under a 10% CO2 atmosphere at 95% relative atmospheric humidity and at 37° C. […] The apparent permeability coefficient (Papp) is calculated using the following equation: [formula] […]

# COMPOUND, VALUE UNITS, QUALIFYING SIGN, Absorbed fraction
records = [
    ("Cl.Fc1cccc(CN[C@@H]2C[C@@H]3C[C@H]2[C@@H]2CCC[C@H]32)c1", "%", "=", 100),
    ("COc1cccc(CN[C@@H]2C[C@@H]3C[C@H]2[C@@H]2CCC[C@H]32)c1.Cl (racemic)", "%", "=", 100),
    ("C/C(=C\\c1ccc(C)cc1/C=C(\\C)C(=O)N=C(N)N)C(=O)N=C(N)N.Cl.Cl [S 3226, reference compound]", "%", "<", 5),
    ("C/C(=C\\c1cccc(/C=C(\\C)C(=O)N=C(N)N)c1)C(=O)N=C(N)N.Cl.Cl [S 2120, reference compound]", "%", "<", 1),
]
